- Test system: P388 leukemia ip, CD2F1 mice, survival T/C
- experimental_details: NCI In Vivo Anticancer Drug Screen. Data for tumor model P388 Leukemia (intraperitoneal) in CD2F1 (CDF1) mice
- condition: endpoint: median survival time; dose: 200.0 mg/kg/injection; schedule: Q01DX005 (ip); vehicle: saline; higher = longer survival
Inconclusive results and toxic doses are left out.
measured_attribute: T/C

Example cases with answers are listed next.
compound | measured_attribute | measurement
O=c1nc2n(CC(O)C(O)C(O)C(O)CO)c3ccc(Cl)cc3nc-2c(=O)[nH]1 (stereo not given) | T/C | 104 % of control
Nc1cc2[nH]ccc2c(=O)[nH]1 | T/C | 114 % of control
CCN(CC)c1ccc(C(NCCC(C)C)C(Cl)(Cl)Cl)cc1 (stereo not given) | T/C | 101 % of control
Cc1cn(CCCSCC2OC3OC4C(CO)OC(OC5C(CO)OC(OC6C(CO)OC(OC7C(CO)OC(OC8C(CO)OC(OC9C(CO)OC(OC2C(O)C3O)C(O)C9O)C(O)C8O)C(O)C7O)C(O)C6O)C(O)C5O)C(O)C4O)c(=O)[nH]c1=O (stereo not given) | T/C | 98 % of control

Here is the next item to consider.
Q: Report T/C for `O=C(O)c1nnn(-c2ccccc2)n1` please.
Ans: 106 % of control
